System: HSV-1 strain F or KOS
protocol.notes: Inhibition of herpes simplex virus (HSV-1) replication in cell culture (BHK-21 cells, glycoprotein C ELISA)
Format: cell-based
test.settings: Human alphaherpesvirus 1, BHK-21, Group 1 Table 1 entries
experimental.endpoint: pEC50
Numbers only, as −log10 of the molar value.

Check out these entries, answers already filled in.
- Nc1nc(-c2ccc(NC(=O)CN(Cc3ccncc3)C(=O)c3ccc(F)cc3)cc2)cs1: 7.77
- Nc1nc(-c2ccc(NC(=O)CN(Cc3ccccc3)C(=O)c3ccncn3)cc2)cs1: 6.82

Sample Nc1nc(-c2ccc(NC(=O)CN(CCc3ccncc3)C(=O)c3ccncc3)cc2)cs1 ; pEC50 observed: 5.18

###

System: HSV-1 strain F or KOS
protocol.notes: Inhibition of herpes simplex virus (HSV-1) replication in cell culture (BHK-21 cells, glycoprotein C ELISA)
Assay type: cell-based
test.settings: Human alphaherpesvirus 1, BHK-21, Group 1 Table 1 entries
experimental.endpoint: log10 EC50 (log10 of the value in nM)
Scale type: logarithmic (base 10). Underlying EC50 unit: nM.

Check out these entries, answers already filled in.
- CN(C(=O)N(CC(=O)Nc1ccc(-c2csc(N)n2)cc1)Cc1ccccc1)C(C)(C)C [Example 94]: 1.81
- CC(C)COC(=O)N(CC(=O)Nc1ccc(-c2csc(N)n2)cc1)Cc1ccccc1 [Example 86]: 1.94
- Nc1nc(-c2ccc(NC(=O)CN(Cc3ccccc3)S(=O)(=O)c3ccccc3)cc2)cs1 [Example 97]: 2.11
- CC(C)(C)C(=O)N(CC(=O)Nc1ccc(-c2csc(N)n2)cc1)Cc1ccccc1 [Example 41]: 1.56

Items follow; give log10 EC50 for each.
1. COc1ccc(CN(CC(=O)Nc2ccc(-c3csc(N)n3)cc2)C(=O)c2ccncc2)cc1 [Example 150]
2. Nc1nc(-c2ccc(NC(=O)CN(Cc3ccccc3)C(=O)c3cnccn3)cc2)cs1 [Example 33]
3. CCC(CC)C(=O)N(CC(=O)Nc1ccc(-c2csc(N)n2)cc1)Cc1ccccc1 [Example 104]
4. CCCC(CCC)N(CC(=O)Nc1ccc(-c2csc(N)n2)cc1)C(=O)OC(C)(C)C [Example 111]
5. Nc1nc(-c2ccc(NC(=O)CN(CCc3cscn3)C(=O)c3ccncc3)cc2)cs1 [Example 164]
6. Cc1nc(CN(CC(=O)Nc2ccc(-c3csc(N)n3)cc2)C(=O)c2ccncc2)cs1 [Example 162]

[2.08, 2.23, 1.20, 2.38, 1.79, 1.84]

###

tested.system: HSV-1 helicase-primase (Human herpesvirus 1, UniProt P10189+P10236)
Construct: made in house; host or cells: Sf21 insect cells triply infected with recombinant baculoviruses (UL5, UL8, UL52)
Sequence (P10192 whole entry): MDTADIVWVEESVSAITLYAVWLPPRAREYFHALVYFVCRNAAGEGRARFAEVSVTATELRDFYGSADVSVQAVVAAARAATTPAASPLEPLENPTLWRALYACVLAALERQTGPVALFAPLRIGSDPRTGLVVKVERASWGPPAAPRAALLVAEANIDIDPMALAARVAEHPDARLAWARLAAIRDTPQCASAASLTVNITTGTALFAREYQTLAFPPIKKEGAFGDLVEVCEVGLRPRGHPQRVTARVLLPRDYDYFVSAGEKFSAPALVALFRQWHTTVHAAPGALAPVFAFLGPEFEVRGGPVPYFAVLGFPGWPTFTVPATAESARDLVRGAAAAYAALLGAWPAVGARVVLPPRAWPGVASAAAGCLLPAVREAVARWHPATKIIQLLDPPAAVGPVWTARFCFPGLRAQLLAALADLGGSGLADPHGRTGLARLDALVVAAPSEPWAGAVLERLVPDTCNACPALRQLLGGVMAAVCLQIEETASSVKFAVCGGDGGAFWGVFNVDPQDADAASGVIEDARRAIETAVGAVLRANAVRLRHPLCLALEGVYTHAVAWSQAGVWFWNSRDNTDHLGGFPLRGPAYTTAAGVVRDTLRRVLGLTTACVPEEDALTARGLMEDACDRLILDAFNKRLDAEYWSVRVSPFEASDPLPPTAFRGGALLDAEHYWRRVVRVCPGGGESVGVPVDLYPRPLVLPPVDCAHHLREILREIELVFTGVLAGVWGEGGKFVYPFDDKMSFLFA
Sequence (P10236 whole entry): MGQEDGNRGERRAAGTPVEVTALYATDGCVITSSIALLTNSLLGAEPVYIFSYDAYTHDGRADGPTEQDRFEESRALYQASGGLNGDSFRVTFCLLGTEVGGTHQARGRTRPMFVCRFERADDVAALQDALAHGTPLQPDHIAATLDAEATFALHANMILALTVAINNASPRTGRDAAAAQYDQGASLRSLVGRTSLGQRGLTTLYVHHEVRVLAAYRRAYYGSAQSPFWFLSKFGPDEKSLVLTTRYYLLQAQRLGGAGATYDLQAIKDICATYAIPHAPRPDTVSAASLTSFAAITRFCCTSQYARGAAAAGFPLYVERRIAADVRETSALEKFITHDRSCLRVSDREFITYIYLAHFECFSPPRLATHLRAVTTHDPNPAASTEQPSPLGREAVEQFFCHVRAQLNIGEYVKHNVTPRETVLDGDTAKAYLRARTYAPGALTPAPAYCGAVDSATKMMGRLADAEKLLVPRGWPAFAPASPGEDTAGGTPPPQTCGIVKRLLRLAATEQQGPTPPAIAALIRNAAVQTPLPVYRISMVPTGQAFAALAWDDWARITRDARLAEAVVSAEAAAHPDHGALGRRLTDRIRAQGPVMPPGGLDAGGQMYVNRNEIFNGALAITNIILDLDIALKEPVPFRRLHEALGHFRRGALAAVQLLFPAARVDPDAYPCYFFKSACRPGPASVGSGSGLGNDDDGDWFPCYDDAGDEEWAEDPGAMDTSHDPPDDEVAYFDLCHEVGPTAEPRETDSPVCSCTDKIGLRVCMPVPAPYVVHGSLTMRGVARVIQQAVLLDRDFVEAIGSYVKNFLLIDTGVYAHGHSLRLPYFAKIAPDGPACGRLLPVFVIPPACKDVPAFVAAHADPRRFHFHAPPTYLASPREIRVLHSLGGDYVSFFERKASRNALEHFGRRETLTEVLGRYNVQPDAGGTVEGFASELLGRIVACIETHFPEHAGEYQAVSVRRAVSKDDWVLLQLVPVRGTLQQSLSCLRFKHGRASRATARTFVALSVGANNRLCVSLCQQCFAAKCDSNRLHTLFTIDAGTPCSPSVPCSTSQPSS
Sequence (P10189 whole entry): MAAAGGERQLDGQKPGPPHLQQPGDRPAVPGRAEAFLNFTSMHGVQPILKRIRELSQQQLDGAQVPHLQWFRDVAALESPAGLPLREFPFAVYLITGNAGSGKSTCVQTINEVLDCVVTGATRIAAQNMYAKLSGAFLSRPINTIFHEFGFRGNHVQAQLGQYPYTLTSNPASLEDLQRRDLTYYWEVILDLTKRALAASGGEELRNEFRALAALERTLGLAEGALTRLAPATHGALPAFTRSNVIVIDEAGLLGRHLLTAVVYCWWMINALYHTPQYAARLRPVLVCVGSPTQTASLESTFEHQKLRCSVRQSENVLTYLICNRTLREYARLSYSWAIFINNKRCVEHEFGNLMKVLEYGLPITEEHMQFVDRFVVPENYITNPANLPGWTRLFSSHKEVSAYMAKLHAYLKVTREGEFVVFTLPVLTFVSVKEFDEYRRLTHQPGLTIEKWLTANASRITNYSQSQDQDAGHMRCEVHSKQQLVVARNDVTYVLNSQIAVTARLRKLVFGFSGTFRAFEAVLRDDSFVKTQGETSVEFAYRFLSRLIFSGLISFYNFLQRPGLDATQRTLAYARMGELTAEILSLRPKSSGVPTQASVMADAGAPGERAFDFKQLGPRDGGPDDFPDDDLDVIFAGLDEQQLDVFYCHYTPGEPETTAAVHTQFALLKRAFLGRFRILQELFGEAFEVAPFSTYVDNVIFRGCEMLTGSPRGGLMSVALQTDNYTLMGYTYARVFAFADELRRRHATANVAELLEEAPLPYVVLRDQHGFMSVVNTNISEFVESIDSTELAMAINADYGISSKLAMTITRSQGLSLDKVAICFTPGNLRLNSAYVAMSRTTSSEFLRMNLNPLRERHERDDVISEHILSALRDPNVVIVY
protocol.notes: HSV-1 DNA-dependent ATPase assay (inhibition of HSV-1 helicase-primase)
Format: biochemical
test.settings: Group 1 Table 1 entries
Experimental: A) HSV-1 DNA-Dependent ATP Assay (an in Vitro Assay Based on the Inhibition of HSV-1 Helicase-primase). […] The DNA-dependent ATPase assay, described by J. J. Crute et al., Nucleic Acids Res. 1988, 16, 6585, was modified and used to evaluate the capability of the compounds of Group 1-formula 1 to inhibit HSV-1 helicase-primase activity. […] DNA-dependent ATPase activity was calculated from the net absorbance change in the presence and absence of inhibition.
experimental.endpoint: pIC50
Answers are plain numbers, as −log10 of the molar value.

Check out these entries, answers already filled in.
- Nc1nc(-c2ccc(NC(=O)CN(Cc3ccc(F)cc3)C(=O)c3ccccc3)cc2)cs1 [Example 59]: 6.52
- Nc1nc(-c2ccc(NC(=O)CN(Cc3ccccc3)C(=O)c3ccc(F)cc3)cc2)cs1 [Example 24]: 7.32
- Nc1nc(-c2ccc(NC(=O)CN(Cc3ccccc3)C(=O)c3cc[n+]([O-])cc3)cc2)cs1 [Example 30]: 6.36

Items follow; give pIC50 for each.
1. Nc1nc(-c2ccc(NC(=O)CN(Cc3ccccc3)C(=O)OCc3ccccc3)cc2)cs1 [Example 109]
2. Nc1nc(-c2ccc(NC(=O)CNCc3ccc(F)cc3)cc2)cs1 [Example 4]
3. Nc1nc(-c2ccc(NC(=O)CN(Cc3ccccn3)C(=O)c3ccncc3)cc2)cs1 [Example 56]
4. CC(C)(C)OC(=O)N1CCC(C(=O)N(CC(=O)Nc2ccc(-c3csc(N)n3)cc2)Cc2ccccc2)CC1 [Example 40]
5. Cc1ccccc1CN(CC(=O)Nc1ccc(-c2csc(N)n2)cc1)C(=O)Cc1ccccn1 [Example 127]
6. CCC(CC)C(=O)N(CC(=O)Nc1ccc(-c2csc(N)n2)cc1)Cc1ccccc1 [Example 104]
7. Cc1nc(C(=O)N(CC(=O)Nc2ccc(-c3csc(N)n3)cc2)Cc2ccccc2)cs1 [Example 172]

6.51
5.46
5.92
5.77
6.00
7.11
5.80
